Data provenance is PubChem BioAssay (NCI).

System: SK-MEL-2 melanoma
Test Method Notes: NCI-60 one-dose screen, 48 h (100 = growth as untreated, 0 = no growth, -100 = all killed)
Reported Conditions: 10 µM
This is part of a sample that, as a whole, favours compounds with a hit. Of some 83,000 tested, about 20% had one in any assay. Active and inactive are the calls of the source. How the source made its calls: active means growth percent below 10; inactive means the rest.
Assay Metric: growth

Worked cases, growth given:
[[record]]
compound = "COc1ccc(C2c3sc4ccc(C)cc4c3Oc3nc[nH]c(=O)c32)cc1 (stereo not drawn)"
experimental_result = "68.8% (inactive)"

[[record]]
compound = "CC1(C)CC[C@]2(C(=O)O)CC[C@]3(C)C(=CCC4[C@@]5(C)C[C@@H](O)[C@@H]6OC(c7cccc(F)c7)OC[C@@]6(C)C5CC[C@]43C)C2C1 (stereo partly drawn)"
experimental_result = "51.1% (inactive)"

[[record]]
compound = "O=C(Nc1ccc(OCc2ccc(F)cc2)cc1)Nc1ccc(Cl)c(C(F)(F)F)c1"
experimental_result = "-34.7% (active)"


Any idea what growth was measured for COc1ccc(Cc2nn(CC(=O)N/N=C/c3ccc([N+](=O)[O-])cc3)c(=O)c3c(C)noc23)cc1 ? 99.1% (inactive)

Given the entry COc1ccc(C(=O)COc2ccc(NC(=O)Nc3ccccc3)cc2)cc1 , report its measured growth. 80.8% (inactive)

What does the data say about its growth? Entry: COc1ccc(C(=O)COc2ccc(NC(=O)Nc3ccc(Cl)c(C(F)(F)F)c3)cc2)cc1 -6.77% (active)

Looking for the measured growth of COc1ccc(C2OC[C@@]3(C)C4CC[C@]5(C)C(CC=C6C7CC(C)(C)CC[C@]7(C(=O)O)CC[C@]65C)[C@@]4(C)C[C@@H](O)[C@@H]3O2)cc1 (stereo partly drawn) , can you help? 102% (inactive)

Entry O=C(c1ccc(F)cc1)C(c1c[nH]c2ccccc12)c1c[nH]c2ccccc12 : reported growth = ? 87.5% (inactive)
